// data source = patent US20100267706A1

# STUDY SYSTEM: CFTR (Homo sapiens, UniProt P13569)
# Sequence (P13569 whole entry): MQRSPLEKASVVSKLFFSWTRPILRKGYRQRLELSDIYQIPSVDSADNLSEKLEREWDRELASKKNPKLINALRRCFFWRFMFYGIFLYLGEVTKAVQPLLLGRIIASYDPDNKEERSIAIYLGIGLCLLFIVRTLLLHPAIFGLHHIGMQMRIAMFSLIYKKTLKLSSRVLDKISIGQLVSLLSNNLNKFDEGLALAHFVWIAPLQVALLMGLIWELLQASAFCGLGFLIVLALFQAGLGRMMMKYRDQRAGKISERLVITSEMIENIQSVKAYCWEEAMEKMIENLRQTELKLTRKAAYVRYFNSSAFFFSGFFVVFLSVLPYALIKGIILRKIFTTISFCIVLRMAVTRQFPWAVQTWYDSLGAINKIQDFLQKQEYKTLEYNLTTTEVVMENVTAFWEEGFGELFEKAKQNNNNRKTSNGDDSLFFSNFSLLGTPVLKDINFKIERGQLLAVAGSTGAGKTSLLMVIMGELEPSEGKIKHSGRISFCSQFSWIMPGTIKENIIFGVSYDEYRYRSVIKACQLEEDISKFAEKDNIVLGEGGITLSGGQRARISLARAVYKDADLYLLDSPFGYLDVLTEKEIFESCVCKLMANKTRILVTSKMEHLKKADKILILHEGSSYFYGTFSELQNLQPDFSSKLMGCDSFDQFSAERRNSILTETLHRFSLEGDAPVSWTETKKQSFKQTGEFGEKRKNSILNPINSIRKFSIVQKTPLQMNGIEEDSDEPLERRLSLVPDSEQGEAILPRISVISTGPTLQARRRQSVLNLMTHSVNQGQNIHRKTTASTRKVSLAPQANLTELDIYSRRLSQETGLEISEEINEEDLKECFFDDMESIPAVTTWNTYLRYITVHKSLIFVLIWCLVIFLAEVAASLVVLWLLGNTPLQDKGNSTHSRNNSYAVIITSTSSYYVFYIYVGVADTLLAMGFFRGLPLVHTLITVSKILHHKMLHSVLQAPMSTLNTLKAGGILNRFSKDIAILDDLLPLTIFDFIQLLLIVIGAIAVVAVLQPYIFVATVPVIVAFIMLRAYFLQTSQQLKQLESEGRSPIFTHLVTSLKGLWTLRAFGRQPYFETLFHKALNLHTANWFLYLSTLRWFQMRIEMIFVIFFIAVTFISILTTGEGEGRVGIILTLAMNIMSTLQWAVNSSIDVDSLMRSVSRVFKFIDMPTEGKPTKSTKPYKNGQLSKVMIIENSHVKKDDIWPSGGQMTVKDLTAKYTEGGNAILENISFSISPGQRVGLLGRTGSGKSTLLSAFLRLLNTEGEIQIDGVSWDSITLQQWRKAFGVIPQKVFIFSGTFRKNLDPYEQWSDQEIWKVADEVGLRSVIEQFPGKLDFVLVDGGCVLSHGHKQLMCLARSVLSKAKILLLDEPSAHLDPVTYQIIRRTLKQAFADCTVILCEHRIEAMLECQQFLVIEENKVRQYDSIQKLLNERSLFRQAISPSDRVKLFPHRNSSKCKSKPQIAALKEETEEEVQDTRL
# PROTOCOL SUMMARY: T84 assay (FLIPR membrane potential, forskolin/IBMX-stimulated CFTR channel activity)
# MEASUREMENT PARAMETERS: Human colonic T84 cells; average of at least 2 runs unless annotated n = 1
# reported IC50; entries follow
# output: bare number, implied unit µM

> print(dat)
                                   molecule  unit.spec  numeric.readout
1  O=C(c1cc(-c2cc(Cl)c(O)c(Cl)c2)nnc1OCCc1ccc(Cl)cc1)N(CCO)Cc1ccccc1         µM             8.26
2  O=C(c1cc(-c2cc(Cl)c(O)c(Cl)c2)nnc1OCCc1ccc(Cl)cc1)N(CCO)Cc1ccc(F)cc1         µM             12.1
3  O=C(c1cc(-c2cc(Cl)c(O)c(Cl)c2)nnc1OCCc1ccc(Cl)cc1)N(CCO)Cc1ccccn1         µM             14.7
4  CCN(Cc1ccccc1)C(=O)c1cc(-c2cc(Cl)c(O)c(Cl)c2)nnc1N(CC)Cc1ccccc1         µM               12

Item under review: `CC(C)(C)c1ccc(CNC(=O)c2cc(-c3cc(Cl)c(O)c(Cl)c3)nnc2OCCc2ccc(Cl)cc2)cc1` . Reported IC50?
20.1

Next compound: `CN(C)CCCOc1ccc(CN2CCN(c3cc(-c4cc(Cl)c(O)c(Cl)c4)nnc3OCCc3ccc(Cl)cc3)CC2)cc1`
1.8

Next: `COCCN(Cc1ccccc1)C(=O)c1cc(-c2cc(Cl)c(O)c(Cl)c2)nnc1OCCc1ccc(Cl)cc1`
8.5

---

# STUDY SYSTEM: CFTR (Homo sapiens, UniProt P13569)
# PROTOCOL SUMMARY: T84 assay (FLIPR membrane potential, forskolin/IBMX-stimulated CFTR channel activity)
# MEASUREMENT PARAMETERS: Human colonic T84 cells; average of at least 2 runs unless annotated n = 1
Recorded pIC50 values for a group of compounds are listed next.
Conceptually, pIC50 converts a concentration in mol/L into minus its log10.

See these solved cases before continuing.
> print(dat)
                                   compound  numeric.readout
1  O=C(NCc1cccc(C(F)(F)F)c1)c1cc(-c2cc(Cl)c(O)c(Cl)c2)nnc1OCCc1ccc(Cl)cc1 [Compound 6]             4.61
2  CN(C)CCOc1ccc(CN2CCN(c3cc(-c4cc(Cl)c(O)c(Cl)c4)nnc3OCCc3ccc(Cl)cc3)CC2)cc1 [Compound 15]             5.52
3  Oc1c(Cl)cc(-c2cc(N3CCN(Cc4cccc(C(F)(F)F)c4)CC3)c(OCCc3ccc(Cl)cc3)nn2)cc1Cl [Compound 1]             4.57

Find pIC50 (CFTR (Homo sapiens, UniProt P13569)) for the entry O=C(NCc1cc(F)cc(F)c1)c1cc(-c2cc(Cl)c(O)c(Cl)c2)nnc1OCCc1ccc(Cl)cc1 [Compound 8]
4.89

---

# STUDY SYSTEM: CFTR (Homo sapiens)
# PROTOCOL SUMMARY: T84 assay (FLIPR membrane potential, forskolin/IBMX-stimulated CFTR channel activity)
# MEASUREMENT PARAMETERS: Human colonic T84 cells; average of at least 2 runs unless annotated n = 1
# Description: For example, Human colonic T84 cells can be acquired from the European Collection of Cell Cultures (ECACC) and grown in standard culture conditions as described by the supplier. […] T84 cells are incubated with the FLIPR Red membrane potential dye for 45 minutes in the presence and absence of test compound before being transferred to a commercially available fluorescence imaging plate reader (FLIPR384, Molecular Devices Corporation). […]
pIC50: −log10 of the molar value.
# if value of pIC50 reaches 5, tag 1; if it stays below, tag 0

Illustrative cases are given below, each with its answer.
> print(dat)
                                   molecule  assigned.category
1  O=C(c1cc(-c2cc(Cl)c(O)c(Cl)c2)nnc1OCCc1ccc(Cl)cc1)N(CCO)Cc1ccc2c(c1)OCO2                  0
2  CN(C)CCCOc1ccccc1CN1CCN(c2cc(-c3cc(Cl)c(O)c(Cl)c3)nnc2OCCc2ccc(Cl)cc2)CC1                  1
3  O=C(c1cc(-c2cc(Cl)c(O)c(Cl)c2)nnc1OCCc1ccc(Cl)cc1)N(Cc1ccccc1)CC(F)(F)F                  0
4  COc1cc(CN2CCN(c3cc(-c4cc(Cl)c(O)c(Cl)c4)nnc3OCCc3ccc(Cl)cc3)CC2)ccc1OCCN1CCN(C)CC1                  1
5  CCN1CCN(c2cc(-c3cc(Cl)c(O)c(Cl)c3)nnc2OCCc2ccc(Cl)cc2)CC1                  0

Please indicate if the recorded pIC50 for `Oc1c(Cl)cc(-c2cc(N3CCN(Cc4ccc(OCCCN5CCSCC5)cc4)CC3)c(OCCc3ccc(Cl)cc3)nn2)cc1Cl` meets or exceeds 5.
0

Next: `O=C(c1cc(-c2cc(Cl)c(O)c(Cl)c2)nnc1OCCc1ccc(Cl)cc1)N(CCO)Cc1cccnc1`
0

`O=C(c1cc(-c2cc(Cl)c(O)c(Cl)c2)nnc1OCCc1ccc(Cl)cc1)N(CCO)Cc1ccc(Cl)c(Cl)c1` ?
0

Lookup `O=C(NCc1ccc(C(F)(F)F)cc1)c1cc(-c2cc(Cl)c(O)c(Cl)c2)nnc1OCCc1ccc(Cl)cc1`
0
